Tested on: Biomphalaria glabrata
Experiment: Molluscicidal activity against Biomphalaria glabrata assessed as minimum concentration required to cause mortality measured after 24 hrs
Assay type: functional

{"test.smiles": "CC1(C)CC[C@]2(C(=O)O)CC[C@]3(C)C(=CC[C@@H]4[C@@]5(C)CC[C@H](O[C@@H]6O[C@H](C(=O)O)[C@@H](O)[C@H](O[C@@H]7OC[C@@H](O)[C@H](O)[C@H]7O)[C@H]6O)C(C)(C)[C@@H]5CC[C@]43C)[C@@H]2C1", "operator": "=", "Activity [ppm]": 4}
{"test.smiles": "CC1(C)CC[C@]2(C(=O)O)CC[C@]3(C)C(=CC[C@@H]4[C@@]5(C)CC[C@H](O[C@@H]6OC[C@@H](O)[C@H](O)[C@H]6O)C(C)(C)[C@@H]5CC[C@]43C)[C@@H]2C1", "operator": ">", "Activity [ppm]": 16}

---

Tested on: Biomphalaria glabrata
Assay: Molluscicidal activity against Biomphalaria glabrata assessed as minimum concentration required to cause mortality measured after 24 hrs
Format: functional

{"test.smiles": "CC1(C)CC[C@]2(C(=O)O)CC[C@]3(C)C(=CC[C@@H]4[C@@]5(C)CC[C@H](O)C(C)(C)[C@@H]5CC[C@]43C)[C@@H]2C1", "Activity / ppm": 0}
{"test.smiles": "C[C@@H]1O[C@@H](O[C@@H]2[C@@H](O)[C@H](O[C@H]3CC[C@]4(C)[C@H]5CC=C6[C@@H]7CC(C)(C)CC[C@]7(C(=O)O)CC[C@@]6(C)[C@]5(C)CC[C@H]4C3(C)C)O[C@H](C(=O)O)[C@H]2O)[C@H](O)[C@H](O)[C@H]1O", "Activity / ppm": 4}
{"test.smiles": "CC1(C)CC[C@]2(C(=O)O)CC[C@]3(C)C(=CC[C@@H]4[C@@]5(C)CC[C@H](O[C@@H]6O[C@H](C(=O)O)[C@@H](O)[C@H](O)[C@H]6O)C(C)(C)[C@@H]5CC[C@]43C)[C@@H]2C1", "Activity / ppm": 2}
